- System: ENR+CD organoids
- Assay details: Primary screen: ATP (CellTiter-Glo 3D, CTG) cell number/viability, 2.5-D 384-well ENR+CD organoids;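 also: compounds given at plating and again on day 3 over a 6-day differentiation from ENR+CV stem-cell-enriched precursors, ATP measured on day 6, plate median as control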
- Details: primary screen, dose 0.40 uM
Where a name gives a salt, the structure may show the parent alone.
Endpoint label: Dose.FC.CTG (log2 fold change)
Your answer is read as log2 fold change, so omit the unit and give the number.

Here is how some molecules turned out for Dose.FC.CTG.
Molecule	Endpoint label	Units	Observed measurement
Cc1ccccc1C(=O)Nc1ccc(C(=O)N2CCCC(O)c3cc(Cl)ccc32)c(C)c1 (stereo not shown)	Dose.FC.CTG	log2 fold change	−0.008
CCCCN1CCCCC1C(=O)Nc1c(C)cccc1C (stereo not shown) [Bupivacaine HCl]	Dose.FC.CTG	log2 fold change	−0.217
C[C@@H]1C(=O)O[C@H]2C[C@@]34[C@H]5C[C@@H](C(C)(C)C)[C@]36[C@@H](OC(=O)[C@@H]6O)O[C@@]4(C(=O)O5)[C@]21O [Ginkgolide A]	Dose.FC.CTG	log2 fold change	−0.017

Given COc1ccccc1OCCNCC(O)COc1cccc2[nH]c3ccccc3c12 (stereo not shown) , report its Dose.FC.CTG on ENR+CD organoids. −0.014

Given CCNC(=O)c1noc(-c2cc(C(C)C)c(O)cc2O)c1-c1ccc(CN2CCOCC2)cc1 , report its Dose.FC.CTG on ENR+CD organoids. −1.343

Given Nc1nc(N)c2nc(-c3ccccc3)c(N)nc2n1 , report its Dose.FC.CTG on ENR+CD organoids. −0.165

Given C[C@@H](c1ncncc1F)[C@](O)(Cn1cncn1)c1ccc(F)cc1F , report its Dose.FC.CTG on ENR+CD organoids. 0.306

Given C=C1C(=O)O[C@@H]2/C=C(\C)CC/C=C(\C)CC[C@@H]12 [Costunolide] , report its Dose.FC.CTG on ENR+CD organoids. 0.121

====

- Tested on: ENR+CD organoids (ISC to Paneth cell differentiation)
- Assay details: Primary screen: basal (non-stimulated) lysozyme secretion LYZ.NS, 2.5-D 384-well ENR+CD organoid differentiation
- Format: cell-based, mouse
- Details: primary screen, dose 0.08 uM
Counter-ions that a name gives are not always drawn.
Endpoint label: Z.LYZ.NS (standard z score)

Compound	Endpoint label	Observed measurement
C[C@@H](Oc1cc(-n2cnc3ccc(CN4CCN(C)CC4)cc32)sc1C(N)=O)c1ccccc1C(F)(F)F	Z.LYZ.NS (standard z score)	0.682
CC(C)NCC(O)COc1ccc(COCCOC(C)C)cc1 (stereo not shown) [Bisoprolol fumarate]	Z.LYZ.NS (standard z score)	0.739
CCOC(=O)C1=C(COCCN)NC(C)=C(C(=O)OC)C1c1ccccc1Cl (stereo not shown)	Z.LYZ.NS (standard z score)	0.228

Next:
Give me measured Z.LYZ.NS (standard z score), please, for this compound: Cc1cc(SCc2sc(-c3ccc(C(F)(F)F)c(F)c3)nc2C)ccc1OCC(=O)O 0.454

====

The molecules listed here are annotated with their Dose.FC.LYZ.NS.
- System: ENR+CD organoids (ISC to Paneth cell differentiation)
- Assay details: Primary screen: basal (non-stimulated) lysozyme secretion LYZ.NS, 2.5-D 384-well ENR+CD organoid differentiation
- Format: cell-based, mouse
- Details: primary screen, dose 2.00 uM
Structures can show the parent of a compound that is named as a salt.
Your answer is read as log2 fold change, so omit the unit and give the number.

Molecule	Target	Endpoint label	Units	Observed measurement
CCc1cccc2c3c([nH]c12)C(CC)(CC(=O)O)OCC3 (centres unmarked) [Etodolac]	ENR+CD organoids (ISC to Paneth cell differentiation)	Dose.FC.LYZ.NS	log2 fold change	0.052
Cc1ccc(-c2cc(C(F)(F)F)nn2-c2ccc(S(N)(=O)=O)cc2)cc1 [Celecoxib]	ENR+CD organoids (ISC to Paneth cell differentiation)	Dose.FC.LYZ.NS	log2 fold change	−0.084
CC(C)c1cc(-c2n[nH]c(=O)n2-c2ccc3c(ccn3C)c2)c(O)cc1O [Ganetespib (STA-9090)]	ENR+CD organoids (ISC to Paneth cell differentiation)	Dose.FC.LYZ.NS	log2 fold change	−0.150
CC(/C=C/C(=O)NO)=C\[C@@H](C)C(=O)c1ccc(N(C)C)cc1 [Trichostatin A (TSA)]	ENR+CD organoids (ISC to Paneth cell differentiation)	Dose.FC.LYZ.NS	log2 fold change	−0.153

Next:
Give me measured Dose.FC.LYZ.NS, please, for this molecule: Clc1ccccc1CN1CCc2sccc2C1 [Ticlopidine HCl] −0.002
